Entry source: patent US20110230472A1

Target: PI-3 kinase γ (Homo sapiens)
Assay: PI3Kγ inhibitory activity, PI3-kinase HTRF assay (inhibition ratio)
Format: biochemical
Conditions: 0.5 h; PI3Kγ, compound at 50 μM
Experimental: The PI3Kγ inhibitory activity of a compound was evaluated using PI3-kinase HTRF™ assay (Millipore) according to the following procedure: […] 5 μL of a detection reagent containing a europium-labeled anti-GST antibody, the GST-tagged PH domain, and allophycocyanin-labeled streptavidin was added thereto. After 18 hours, HTRF (excitation wavelength: 330 nm, measured wavelengths: 620 nm and 665 nm) was measured. […]
For each entry below, report its inhibition at 50 µM value.

Sample records with inhibition at 50 µM:
CC(=O)Nc1cc2n(n1)CCN2C(=O)c1ccccc1 [Compound I-2] :: ≥ 95%
CNC(=O)Nc1cc2n(n1)CCN2c1cccc(O)c1 [Compound I-105] :: ≥ 95%
O=C(Nc1cc2n(n1)CCN2c1cccc(Cl)c1)c1ccn[nH]1 [Compound I-246] :: 90%

Dear colleague, could you please provide inhibition at 50 µM for the compounds listed below?
1. O=C(O)c1cccc(C(=O)Nc2cc3n(n2)CCN3c2cccc(Cl)c2)c1 [Compound I-247]
2. CNC(=O)Nc1cc2n(n1)CCN(c1cncc(OC)c1)C2 [Compound I-65]

Result string:
1. 95%
2. ≥ 95%

Give inhibition at 50 µM for each of the items listed below.
1. CNC(=O)Nc1cc2n(n1)CCN2C(=O)Oc1ccccc1 [Compound I-51]
2. CNC(=O)Nc1cc2n(n1)CCN2c1nc(C)c(C(=O)O)s1 [Compound I-201]
3. CNC(=O)Nc1cc2n(n1)CCN2c1ccc2ccccc2c1 [Compound I-176]
4. CNC(=O)Nc1cc2n(n1)CCN2c1ccc(F)c(C(=O)OC(C)(C)C)c1 [Compound I-184]

Result string:
1: 87%; 2: ≥ 95%; 3: ≥ 95%; 4: ≥ 95%

* * *

Biological target: PI-3 kinase γ (Homo sapiens)
Test: PI3Kγ inhibitory activity, PI3-kinase HTRF assay (inhibition ratio)
Type: biochemical
Conditions: 0.5 h; compound at 10 μmol/L
Can you tell me inhibition at 10 µM for the items I'm about to list?

COc1cc(N2CCc3nc(NC(=O)NCc4cc(Br)no4)sc3C2)nc(OC)n1 :: 89%
COc1cc(N2CCc3nc(NC(=O)NCCC(=O)N(C)C(C)C)sc3C2)nc(OC)n1 :: ≥ 95%
O=C(Nc1cc2n(n1)CCN2c1ccc2cnccc2c1)OCc1ccccc1 :: ≥ 95%
CNC(=O)Nc1nc2c(s1)CN(c1cc(N(C)C)nc(OC)n1)CC2 :: ≥ 95%
COc1cc(N2CCc3nc(NC(=O)NCCC(=O)N4CCOCC4(C)C)sc3C2)nc(OC)n1 :: 87%
CN1CCc2cc(N3CCn4nc(NC(=O)c5cnc(N6CCC[C@H]6C(=O)OC(C)(C)C)s5)cc43)ccc2C1=O :: 94%
CN1CCc2cc(N3CCn4nc(NC(=O)OCc5ccccc5)cc43)ccc2C1=O :: 88%
CN1CCc2cc(N3CCn4nc(NC(=O)NCCC(=O)O)cc43)ccc2C1=O :: 87%

I would be grateful if you could provide inhibition at 10 µM for each of the following entries.
1. CN1CCc2cc(N3CCn4nc(NC(=O)NCc5ccccc5)cc43)ccc2C1=O
2. COc1cc(N2CCc3nc(NC(=O)c4ccsc4)sc3C2)nc(OC)n1
3. CN1CCc2cc(N3CCn4nc(NC(=O)c5ccsc5)cc43)ccc2C1=O

Result string:
84%
92%
≥ 95%

* * *

Target: PI-3 kinase γ (Homo sapiens, UniProt P48736)
Sequence (P48736 whole entry): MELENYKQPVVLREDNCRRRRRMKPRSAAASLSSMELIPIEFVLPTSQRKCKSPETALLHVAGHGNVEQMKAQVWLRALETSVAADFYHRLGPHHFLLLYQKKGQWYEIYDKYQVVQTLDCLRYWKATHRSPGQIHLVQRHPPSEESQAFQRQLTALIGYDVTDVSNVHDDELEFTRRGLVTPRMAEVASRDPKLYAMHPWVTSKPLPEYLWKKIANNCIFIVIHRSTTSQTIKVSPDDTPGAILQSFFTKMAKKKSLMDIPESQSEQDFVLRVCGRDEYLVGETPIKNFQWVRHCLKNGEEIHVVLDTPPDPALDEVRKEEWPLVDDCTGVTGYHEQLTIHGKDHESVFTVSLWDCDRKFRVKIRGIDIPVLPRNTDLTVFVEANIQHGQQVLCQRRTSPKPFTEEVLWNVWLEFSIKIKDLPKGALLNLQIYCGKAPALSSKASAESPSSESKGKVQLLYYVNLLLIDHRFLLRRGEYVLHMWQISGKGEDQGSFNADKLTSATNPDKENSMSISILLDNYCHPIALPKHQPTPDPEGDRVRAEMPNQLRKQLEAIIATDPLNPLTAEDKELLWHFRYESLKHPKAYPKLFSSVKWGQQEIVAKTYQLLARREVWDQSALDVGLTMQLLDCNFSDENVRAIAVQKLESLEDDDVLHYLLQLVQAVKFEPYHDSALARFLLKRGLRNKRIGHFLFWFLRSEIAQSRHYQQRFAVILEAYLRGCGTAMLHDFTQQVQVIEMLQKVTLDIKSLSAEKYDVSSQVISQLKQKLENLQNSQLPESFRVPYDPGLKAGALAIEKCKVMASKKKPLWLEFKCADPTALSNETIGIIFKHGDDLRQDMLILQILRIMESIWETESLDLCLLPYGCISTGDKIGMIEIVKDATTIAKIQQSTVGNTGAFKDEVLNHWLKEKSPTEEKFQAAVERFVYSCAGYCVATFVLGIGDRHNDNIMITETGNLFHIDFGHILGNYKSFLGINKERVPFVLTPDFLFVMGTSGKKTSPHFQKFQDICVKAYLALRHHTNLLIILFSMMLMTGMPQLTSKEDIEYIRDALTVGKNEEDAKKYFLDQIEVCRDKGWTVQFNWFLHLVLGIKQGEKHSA
Test: PI3Kγ inhibitory activity, PI3-kinase HTRF assay (inhibition ratio)
Type: biochemical
Details: 0.5 h; PI3Kγ, compound at 50 μM
Procedure: The PI3Kγ inhibitory activity of a compound was evaluated using PI3-kinase HTRF™ assay (Millipore) according to the following procedure: […] 5 μL of a detection reagent containing a europium-labeled anti-GST antibody, the GST-tagged PH domain, and allophycocyanin-labeled streptavidin was added thereto. After 18 hours, HTRF (excitation wavelength: 330 nm, measured wavelengths: 620 nm and 665 nm) was measured. […]
Decide using inhibition at 50 µM: a value greater than or equal to 90% is Met, a smaller one is Not met.

Please review the following examples before continuing.
CC(=O)Nc1cc2n(n1)CCN2c1cccc(Cl)c1 :: Met
CNC(=O)Nc1nc2c(s1)CN(c1cc(C(=O)OC)nc(Cl)n1)CC2 :: Met
CNC(=O)Nc1nc2c(s1)CN(c1cc(C(N)=O)nc(Cl)n1)CC2 :: Met
CNC(=O)Nc1cc2n(n1)CCN2c1cc(Br)cc(C(=O)Nc2cccc(C(=O)OC(C)(C)C)c2)c1 :: Met

Query string: Reported inhibition at 50 µM reaches at least 90% for CNC(=O)Nc1cc2n(n1)CCN2C(=O)OC(C)(C)C ?
Result string: Met

Query string: Evaluate CC(=O)Nc1cc2n(C(=O)OC(C)(C)C)ccn2n1 : inhibition at 50 µM at minimum 90%?
Result string: Met

Query string: inhibition at 50 µM >= 90% for CNC(=O)Nc1cc2n(n1)CCN2c1cc(C(=O)OC)nc(Cl)n1 ?
Result string: Not met

Query string: Reported inhibition at 50 µM reaches at least 90% for CNC(=O)Nc1cc2n(n1)CCN2c1ccc(C(=O)O)cc1 ?
Result string: Met

Query string: Exam item: decide whether the reported inhibition at 50 µM for CNC(=O)Nc1nc2c(s1)CN(c1cc(OC)nc(OC)n1)CC2 is at least 90%.
Result string: Met

* * *

Molecular target: PI-3 kinase γ (Homo sapiens, UniProt P48736)
Test: PI3Kγ inhibitory activity, PI3-kinase HTRF assay (inhibition ratio)
Type: biochemical
Details: 0.5 h; compound at 10 μmol/L
Give measured inhibition at 10 µM for each item. Keep answers brief.

CN1CCc2cc(N3CCn4nc(NC(=O)c5csc(S(=O)(=O)N6CCCC6)c5)cc43)ccc2C1=O [Compound I-436] :: ≥ 95%
CC(C)NC(=O)Nc1cccc(C(=O)Nc2cc3n(n2)CCN3c2ccc3c(c2)CCN(C)C3=O)c1 [Compound I-470] :: 79%
CN1CCc2cc(N3CCn4nc(NC(=O)C(=O)c5cccs5)cc43)ccc2C1=O [Compound I-450] :: ≥ 95%
COc1cc(N2CCc3nc(NC(=O)N4CC(C(=O)NC(C)C)C4)sc3C2)nc(OC)n1 [Compound I-528] :: 76%

Consider the following items and state reported inhibition at 10 µM for each.
1. CN1CCc2cc(N3CCn4nc(NC(=O)c5sccc5Cl)cc43)ccc2C1=O [Compound I-445]
2. CN1CCc2cc(N3CCn4nc(NC(=O)c5cnc(NC(=O)OC(C)(C)C)o5)cc43)ccc2C1=O [Compound I-376]
3. CC(=O)c1ccc(C(=O)Nc2cc3n(n2)CCN3c2ccc3c(c2)CCN(C)C3=O)s1 [Compound I-440]

Result string:
89%
≥ 95%
92%

State the recorded inhibition at 10 µM for every item in the following list.
1. CN(C)C(=O)c1cc(C(=O)Nc2cc3n(n2)CCN3c2ccc3c(c2)CCN(C)C3=O)cs1 [Compound I-432]
2. COC(=O)c1csc(C(=O)Nc2cc3n(n2)CCN3c2ccc3c(c2)CCN(C)C3=O)c1 [Compound I-399]

Result string:
["≥ 95%", "≥ 95%"]

Hi team, please reply with inhibition at 10 µM for each item in this list.
1. COCCOc1ccc(C(=O)Nc2cc3n(n2)CCN3c2ccc3c(c2)CCN(C)C3=O)cc1 [Compound I-549]
2. COc1cc(N2CCc3nc(NC(=O)NCCC(=O)N4CCC[C@H]4C(=O)N4CCCC4)sc3C2)nc(OC)n1 [Compound I-312]

Result string:
["≥ 95%", "≥ 95%"]

// input: 7 compounds below; output: inhibition at 10 µM for each
1. CN1CCc2cc(N3CCn4nc(NC(=O)c5cnc(Br)s5)cc43)ccc2C1=O [Compound I-377]
2. CN1CCc2cc(N3CCn4nc(NC(=O)c5cccnc5)cc43)ccc2C1=O [Compound I-347]
3. COc1cccc(N2CCn3nc(NC(=O)CCNC(=O)OC(C)(C)C)cc32)c1 [Compound I-293]
4. CN1CCc2cc(N3CCn4nc(NC(=O)c5ccc(C(=O)O)s5)cc43)ccc2C1=O [Compound I-391]
5. CN1CCc2cc(N3CCn4nc(NC(=O)N5CCCC5)cc43)ccc2C1=O [Compound I-453]
6. CNC(=O)Nc1nc2c(s1)CN(c1nc(OC)nc(OC)n1)CC2 [Compound I-327]
7. CCCCOc1ccc(C(=O)Nc2cc3n(n2)CCN3c2ccc3c(c2)CCN(C)C3=O)cc1 [Compound I-477]

Result string:
1. ≥ 95%
2. 91%
3. 86%
4. ≥ 95%
5. 76%
6. 84%
7. 82%

Look at each compound and report its inhibition at 10 µM.
1. Cc1csc(C(=O)Nc2cc3n(n2)CCN3c2ccc3c(c2)CCN(C)C3=O)c1 [Compound I-361]
2. CN1CCc2cc(N3CCn4nc(NC(=O)c5cc6ccccc6[nH]5)cc43)ccc2C1=O [Compound I-345]
3. CN1CCc2cc(N3CCn4nc(NC(=O)c5cnco5)cc43)ccc2C1=O [Compound I-348]

Result string:
1. 80%
2. 80%
3. ≥ 95%

The following compounds each have a reported value; give each one's inhibition at 10 µM.
1. CN(C)C(=O)c1ccc(C(=O)Nc2cc3n(n2)CCN3c2ccc3c(c2)CCN(C)C3=O)s1 [Compound I-451]
2. COc1nc(OC)nc(N2CCc3nc(NC(C)=O)sc3C2)n1 [Compound I-330]
3. CC(C)c1cc(C(=O)Nc2cc3n(n2)CCN3c2ccc3c(c2)CCN(C)C3=O)cs1 [Compound I-427]
4. CC(C)NS(=O)(=O)c1ccc(C(=O)Nc2cc3n(n2)CCN3c2ccc3c(c2)CCN(C)C3=O)cc1 [Compound I-527]
5. CNC(=O)Nc1nc2c(s1)CN(c1cc(Cl)nc(OC)n1)CC2 [Compound I-333]

Result string:
90%
83%
88%
79%
88%

Would you mind listing inhibition at 10 µM for each of the following compounds?
1. COc1cc(N2CCc3nc(NC(=O)c4ccc(C)s4)sc3C2)nc(OC)n1 [Compound I-458]
2. CC(C)NC(=O)c1ccccc1NC(=O)Nc1nc2c(s1)CN(C(=O)c1cccc(Cl)c1)CC2 [Compound I-511]
3. CC(=O)Nc1cc2n(n1)CCN2c1ccc2c(c1)CCC(=O)N2C [Compound I-340]
4. CN1CCc2cc(N3CCn4nc(NC(=O)c5cccc(N)c5)cc43)ccc2C1=O [Compound I-473]
5. CN1CCc2cc(N3CCn4nc(NC(=O)c5cccc(OC(C)(C)C(=O)O)c5)cc43)ccc2C1=O [Compound I-474]
6. COc1ccccc1C(=O)N1CCc2nc(NC(=O)Nc3ccccc3C(=O)NC(C)C)sc2C1 [Compound I-485]

Result string:
1: 92%; 2: 75%; 3: ≥ 95%; 4: ≥ 95%; 5: ≥ 95%; 6: 79%
